Recorded values, source patent US8946474B2.

Test method notes: Aqueous solubility as a function of pH
Assay type: physicochemical
Test parameters: Sorensen phosphate buffer, 25 °C, pH 2, aqueous buffer, thermodynamic from solid, pH 2.0 (Sorensen phosphate buffer), room temperature (25° C.), shaken 24 hours
Measurement type: solubility at 24 h (µg/mL)

[[record]]
molecule = "C[C@@H](N[C@H]1CC[C@@H](c2ccc(OCC(=O)O)cc2)C1)c1cccc2ccccc12 [Form X]"
measurement_type = "solubility at 24 h"
quantitative_result = 551


###

Test method notes: Aqueous solubility as a function of pH
Assay type: physicochemical
Test parameters: Sorensen phosphate buffer, 25 °C, pH 6, aqueous buffer, thermodynamic from solid, pH 6.0 (Sorensen phosphate buffer), room temperature (25° C.), shaken 24 hours
Description: In addition to the characterizing analyses by XRPD, XRC, DSC, ATR-FTIR and SS NMR discussed hereinabove, the solubility of {4-[(1R,3S)-3-((R)-1-Naphthalen-1-yl-ethylamino)-cyclopentyl]-phenoxy}-acetic acid Form C and X has been determined as function of pH and in MeOH. The aqueous solubility of Form C and Form X was determined as a function of pH at 25° C. in 0.1N HCl (pH 1.0) and in Sorensen phosphate buffers at pH 2.0, 4.0, 6.0 and 8.0. For each pH value two individual determinations were made. […]
Measurement type: solubility at 24 h (µg/mL)

[[record]]
compound = "C[C@@H](N[C@H]1CC[C@@H](c2ccc(OCC(=O)O)cc2)C1)c1cccc2ccccc12 [Form X]"
unit_abbrev = "µg/mL"
quantitative_result = 78


###

Test method notes: Aqueous solubility as a function of pH
Type: physicochemical
Test parameters: 0.1N HCl, 25 °C, pH 1, simulated gastric fluid, thermodynamic from solid, pH 1.0 (0.1N HCl), room temperature (25° C.), shaken 24 hours
Measurement type: solubility at 24 h (µg/mL)

[[record]]
molecule = "C[C@@H](N[C@H]1CC[C@@H](c2ccc(OCC(=O)O)cc2)C1)c1cccc2ccccc12 [Form X]"
unit_abbrev = "µg/mL"
quantitative_result = 1240


###

Test method notes: Aqueous solubility as a function of pH
Type: physicochemical
Test parameters: Sorensen phosphate buffer, 25 °C, pH 8, aqueous buffer, thermodynamic from solid, pH 8.0 (Sorensen phosphate buffer), room temperature (25° C.), shaken 24 hours
Measurement type: solubility at 24 h (µg/mL)

[[record]]
compound = "C[C@@H](N[C@H]1CC[C@@H](c2ccc(OCC(=O)O)cc2)C1)c1cccc2ccccc12 [Form X]"
measurement_type = "solubility at 24 h"
quantitative_result = 80

